- targetSystem: T1, hCD137 (FXa digested) (human, UniProt Q07011 24-186)
- T1 construct: Factor Xa digestion and Protein A removed the Fc; also called human CD137 extracellular domain
- T1 sequence (Q07011 other isoform, or with tags, fused parts or gaps limits assumed): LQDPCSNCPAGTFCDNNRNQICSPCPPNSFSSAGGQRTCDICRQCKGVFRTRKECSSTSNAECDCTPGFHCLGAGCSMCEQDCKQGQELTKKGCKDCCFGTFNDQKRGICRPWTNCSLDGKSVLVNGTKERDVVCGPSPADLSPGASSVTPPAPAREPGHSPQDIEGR
- testName: SPR, 100 uM ADP
measureName: binding amount (RU)

- binder: "dBBAT042-P253 (antibody, human IgG1, lambda, V domains shown) VH: EVQLVESGGDLVKPGGGLRLSCAASGFTFSSHTMNWVRQAPGKGLEWISSISSRSNYKSYADSVKGRFTISRDNAKNSLYLQMNSLRAEDTAVYYCARYGHKNMHNWVFDYWGQGTLVTVSS VL: QSALTQPPSASGSPGQTVTISCTGTSSDVGFYNYVSWYQQHPGKAPKLMIYEVSKRPSGVPDRFSGSKSGNTASLTVSGLQAEDEADYFCSTYRYDQNVAFGGGTKLTVLG"
  unitsText: "RU"
  measurement: 58.7
- binder: "dBBAT037-P253 (antibody, human IgG1, lambda, V domains shown) VH: EVQLVESGGDLVKPGGGLRLSCAASGFTFSGYTMNWVRQAPGKGLEWVSSISSRSNYIDYADSVKGRFTISRDNAKNSLYLQMNSLRAEDTAVYYCARFGLKNSLNWVFDYWGQGTLVTVSS VL: QSALTQPPSASGSPGQTVTISCTGTSTDVGFYNYVSWYQQHPGKAPKLMIYETSKRPSGVPDRFSGSKSGNTASLTVSGLQAEDEADYFCSSYSGASILLFGGGTKLTVLG"
  unitsText: "RU"
  measurement: 72.1
- binder: "dBBAT091-P253 (antibody, human IgG1, lambda, V domains shown) VH: EVQLVESGGDLVKPGGGLRLSCAASGFTFSSYTMNWVRQAPGKGLEWVSSISSRSNYIDYADSVKGRFTISRDNAKNSLYLQMNSLRAEDTAVYYCARFGKKNDMNWVFDYWGQGTLVTVSS VL: QSALTQPPSASGSPGQTVTISCTGTSTDVGFYNYVSWYQQHPGKAPKLMIYEGSKRPSGVPDRFSGSKSGNTASLTVSGLQAEDEADYFCSSYEYTESVLFGGGTKLTVLG"
  unitsText: "RU"
  measurement: 33
- binder: "dBBAT112-P253 (antibody, human IgG1, lambda, V domains shown) VH: EVQLVESGGDLVKPGGGLRLSCAASGFTFSTYTMNWVRQAPGKGLEWVSSISSRSNYKFYADSVKGRFTISRDNAKNSLYLQMNSLRAEDTAVYYCARFGVKNNMNWVFDYWGQGTLVTVSS VL: QSALTQPPSASGSPGQTVTISCTGTSSDVGFYNYVSWYQQHPGKAPKLMIYEVSKRPSGVPDRFSGSKSGNTASLTVSGLQAEDEADYFCSSYEYIESVLFGGGTKLTVLG"
  unitsText: "RU"
  measurement: 43
